Values were extracted from patent US9815796B2.

ASSAYED SYSTEM: human PDE2A1 (Homo sapiens (Human))
Sequence (O00408 other isoform, or with tags, fused parts or gaps): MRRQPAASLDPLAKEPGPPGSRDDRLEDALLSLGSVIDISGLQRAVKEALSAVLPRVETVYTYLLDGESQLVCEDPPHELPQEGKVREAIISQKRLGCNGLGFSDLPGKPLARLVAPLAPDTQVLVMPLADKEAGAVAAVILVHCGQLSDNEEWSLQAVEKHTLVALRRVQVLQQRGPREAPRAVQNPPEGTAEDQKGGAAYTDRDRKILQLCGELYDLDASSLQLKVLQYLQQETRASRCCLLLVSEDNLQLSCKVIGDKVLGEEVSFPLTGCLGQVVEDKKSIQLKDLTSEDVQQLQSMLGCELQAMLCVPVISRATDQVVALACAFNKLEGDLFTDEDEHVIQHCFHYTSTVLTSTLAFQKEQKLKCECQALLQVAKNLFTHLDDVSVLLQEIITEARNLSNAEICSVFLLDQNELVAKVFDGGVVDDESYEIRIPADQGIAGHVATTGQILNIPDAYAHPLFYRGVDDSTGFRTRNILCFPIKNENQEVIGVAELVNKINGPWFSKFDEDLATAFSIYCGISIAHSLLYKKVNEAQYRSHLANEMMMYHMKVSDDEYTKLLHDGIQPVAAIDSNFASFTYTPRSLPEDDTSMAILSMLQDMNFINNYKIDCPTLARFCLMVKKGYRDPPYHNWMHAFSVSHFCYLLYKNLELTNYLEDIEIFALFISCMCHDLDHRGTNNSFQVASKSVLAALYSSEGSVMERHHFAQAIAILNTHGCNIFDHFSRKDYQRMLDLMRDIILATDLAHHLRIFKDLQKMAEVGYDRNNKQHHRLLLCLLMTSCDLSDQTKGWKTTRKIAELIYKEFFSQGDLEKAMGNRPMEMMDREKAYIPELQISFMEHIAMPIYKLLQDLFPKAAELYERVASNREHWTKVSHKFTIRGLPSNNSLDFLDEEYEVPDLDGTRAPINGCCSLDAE
TEST PROTOCOL: IMAP FP PDE selectivity panel, human PDE2A1
Format: biochemical
SETUP CONDITIONS: Human PDE2, Lab B; read-out: Human PDE2 Ki (nM) - Lab B
ENDPOINT LABEL: Ki (nM)

Please review the following examples before continuing.
[[record]]
chemical_string = "COc1ccc(Cc2nc(C(=O)N[C@@H](c3ccc(C(F)(F)F)cc3)C(C)C)cc(=O)[nH]2)cc1"
endpoint_label = "Ki"
reading = 1.5

[[record]]
chemical_string = "Cc1nc(C(=O)NC(C)(C)c2ccc3c(c2)OC(F)(F)O3)cc(=O)[nH]1"
endpoint_label = "Ki"
reading = 108


(P) Cc1nc(C(=O)N[C@@H](c2ccc(C(F)F)c(F)c2)C2CC2)cc(=O)[nH]1
(Q) Cc1nc(C(=O)N[C@@H](c2ccc(C3CC3)cc2)C(C)(C)C)cc(=O)[nH]1
(R) COc1ccc(C(C)(C)c2nc(C(=O)N[C@@H](c3ccc(C(F)(F)F)c(F)c3)C(C)(C)C)cc(=O)[nH]2)cc1
(S) CCc1nc(C(=O)N[C@H](C)c2ccc(C(F)(F)F)cc2)cc(=O)[nH]1
Q: Rank entries according to their Ki, from the largest number down. Write the labels, ordered according to the request.
A: P, R, S, Q
